assay: Particle size by laser diffraction (Malvern Mastersizer); format: physicochemical; details: material used in Example 1 study
measure: particle size D100 (µm)

CCC(=O)NC[C@@H]1C[C@H]1c1cccc2c1CCO2 [Compound A] = 631

###

experiment: Particle size by laser diffraction (Malvern Mastersizer); format: physicochemical; conditions: material used in Example 2 study; material used in sleep latency study
measure: particle size D100

CCC(=O)NC[C@@H]1C[C@H]1c1cccc2c1CCO2 = 316 µm
